fold change by entry:
Test: viability loss with induced miR-34 in A549 – imaging, A549 dox-inducible miR-34, nuclei and caspase counts, primary screen (AID 1347080); further: test concentration not given here
Condition Info: A549 miR-34 inducible, Hoechst nuclei count, 48 h; measured here: relative caspase fold change +Dox/-Dox

Compound	fold change
CC(C)(CO)c1cc2cc(NC(=O)C3(c4ccc5c(c4)OC(F)(F)O5)CC3)c(F)cc2n1CC(O)CO (centres undefined)	1.56
Cc1cc(NC(=O)Cn2ccc(-c3ncnn3C)n2)n(C2CCCCC2)n1	1.19
CC(C)(C)[N+]([O-])=Cc1ccc(S(=O)(=O)O)cc1S(=O)(=O)O	1.03
CCOC(=O)[C@H](CCc1ccccc1)N[C@@H](C)C(=O)N1C(C(=O)O)C[C@@H]2CCC[C@@H]21 (some centres undefined)	0.659
CCCC(=O)O[C@@]1(C(=O)COC(C)=O)CC[C@H]2[C@@H]3CC(F)C4=CC(=O)C=C[C@]4(C)[C@]3(F)C(O)C[C@@]21C (some centres undefined)	1.77
CCCCCCCCCCCCCCCC(=O)OCC(COP(=O)(O)O)OC(=O)CCCCCCCCCCCCCCC (centres undefined)	1.21
COc1c(C)c(C(=O)c2ccc(N)c(C(=O)O)c2)n2ccccc12	0.344
COc1ccc(CNCc2cccc3ccccc23)cc1	0.638
Cn1c(=O)cc(N2CCCC(N)C2)n(Cc2ccccc2C#N)c1=O (centres undefined)	0.837
C[C@]12CC[C@H]3c4ccc(O)cc4CC[C@H]3[C@@H]1CCC2=O	1.15
COc1ccccc1S(=O)(=O)Nc1ccc2c(c1)CN(C)C(=O)N2	0.364
C=C1C(CO)C(O)CC1n1cnc2c(=O)[nH]c(N)nc21 (centres undefined)	0.924
CCC(=O)O[C@@]1(C(=O)CCl)C(C)C[C@H]2[C@@H]3CC(F)C4=CC(=O)C=C[C@]4(C)[C@]3(F)C(O)C[C@@]21C (some centres undefined)	0.626
CC(=O)O[C@H]1C[C@@]2(C)[C@@H](C[C@@H](O)[C@H]3[C@@]4(C)CC[C@@H](O)[C@@H](C)C4CC[C@@]32C)/C1=C(\CCC=C(C)C)C(=O)O (some centres undefined)	1.1
N#C/C(=C\c1ccc(O)c(O)c1)C(=O)c1ccc(O)c(O)c1	1.26
O=C(O)CCCc1nc(-c2cccc([N+](=O)[O-])c2)no1	0.356
Oc1cc(O)cc(C=Cc2ccc(O)c(O)c2)c1	0.971
CC1C[C@H]2[C@@H]3CC(F)C4=CC(=O)C=C[C@]4(C)[C@]3(F)C(O)C[C@]2(C)[C@@]1(O)C(=O)CO (some centres undefined)	1.01
CC(NC(=O)CCc1nc2ccccc2c(=O)[nH]1)c1ccccc1 (centres undefined)	0.487
CCCCC#Cc1nc(NC)c2ncn([C@@H]3O[C@H](CO)C(O)[C@@H]3O)c2n1 (some centres undefined)	2.24
COc1ccc2c(c1)c(CC(=O)O)c(C)n2C(=O)c1ccccc1	1.77
Nc1nc(=O)n([C@@H]2CS[C@H](CO)O2)cc1F	1.49
COc1cc2c(c(OC)c1OC)-c1c(cc3c(c1OC)OCO3)CC(C)C(C)C2 (centres undefined)	1.02
Cc1[nH]c2ccccc2c1CCNCc1ccc(C=CC(=O)NO)cc1	0.866
NC(=O)C(CCC(F)(F)F)N(Cc1ccc(-c2ncon2)cc1F)S(=O)(=O)c1ccc(Cl)cc1 (centres undefined)	0.873
CS(=O)(=O)c1ccc(C(O)C(CF)NC(=O)C(Cl)Cl)cc1 (centres undefined)	0.642
C=C1/C(=C/C=C2/CCC[C@]3(C)[C@@H]([C@H](C)CCCC(C)C)CC[C@@H]23)C[C@@H](O)C[C@@H]1O	0.894
COc1cccc(OC)c1OCCNCC1CSc2ccccc2O1 (centres undefined)	1.19
Cc1cn([C@H]2C[C@@H](N=[N+]=[N-])[C@@H](CO)O2)c(=O)[nH]c1=O	1.91
CC(C)CC(NC(=O)C(Cc1ccccc1)NC(=O)c1cnccn1)B(O)O (centres undefined)	0.953
O=C1c2c(O)cccc2[C@H]([C@@H]2OC(CO)C(O)C(O)C2O)c2cc(CO)cc(O)c21 (some centres undefined)	0.843
CCSCCNc1nccc(-c2cn(C)nc2C)n1	2.06
CC(C)N(CCC(c1ccccc1)c1cc(CO)ccc1O)C(C)C (centres undefined)	1.04
O=C1NC(=O)C(=Cc2cccc(C(F)(F)F)c2)S1	0.469
CCCCNS(=O)(=O)c1ccccc1	0.335
CC(CCC(=O)O)C1CCC2C3C(=O)CC4CC(=O)CC[C@]4(C)C3CC(=O)[C@]12C (some centres undefined)	0.625
C=CCn1c(=O)c2c(nc(-c3ccc(S(=O)(=O)O)cc3)n2C)n(C)c1=O	2.49
C=CC[N+]1(C2C[C@H]3[C@@H]4CC[C@H]5CC(O)C(N6CCOCC6)C[C@]5(C)[C@@H]4CC[C@]3(C)C2OC(C)=O)CCCC1 (some centres undefined)	0.974
CC1=C(C(=O)O)N2C(=O)C(NC(=O)C(N)c3ccccc3)[C@@H]2SC1 (some centres undefined)	0.849
